Here, compounds appear alongside pIC50 reported for Rho-associated protein kinase 1 (Homo sapiens, UniProt Q13464) in the literature.
pIC50: −log10 of the molar value.
Readout Name: pIC50

Here is how some compounds turned out for pIC50.
# Compound, Reported
rows = [
    ("CCN(CC)C(=O)c1cc2ccc(-c3nccc(Nc4ccc(-c5cn[nH]c5)cc4)n3)cc2[nH]1", 5.20),
    ("COc1cc(C(=O)NCc2ccccc2)ccc1-c1cn[nH]c1", 7.89),
    ("c1n[nH]cc1-c1cnc2ccc(N3CCOCC3)nn12", 4.92),
    ("COc1cc(C(=O)NC(CCO)c2ccccc2)ccc1-c1cn[nH]c1 (centres unmarked)", 8.11),
    ("COc1cccc(C(NC(=O)c2cccc(-c3ccc4[nH]nc(C)c4c3)c2)C(C)(C)N)c1 (centres unmarked)", 6.10),
]

(P) O=C(N[C@H](CO)c1c(F)cccc1F)c1ccc(-c2cn[nH]c2)c(Cl)c1
(Q) CN1CCN(CC(=O)n2ccc3ccc(-c4nccc(Nc5ccc6[nH]ncc6c5)n4)cc32)CC1
(R) COc1cc(C(=O)NCc2cccc(C(=O)NC3(C)CC3)c2)ccc1-c1cn[nH]c1
(S) CCOc1cc(C(=O)N[C@H](CO)c2c(F)cccc2F)ccc1-c1cn[nH]c1
Query: Order the 4 compounds from highest to lowest pIC50. Answer by listing the labels in the order asked for.
Result: R, P, S, Q

(1) O=C(C1CC2(CCNCC2)C1)N1Cc2ccc(-c3nccc(Nc4ccc(-c5cn[nH]c5)cc4)n3)cc2C1
(2) c1ccc2oc(-c3cc4ccc(-c5nccc(Nc6ccc7[nH]ncc7c6)n5)cc4[nH]3)nc2c1
(3) C[C@@H](NC(=O)c1ccc(-c2cn[nH]c2)c(OC(F)F)c1)c1ccccc1
Query: I would appreciate it if you could sort these 3 compounds by pIC50, starting from the smallest number. Answer by listing the labels in the order asked for.
Result: 2, 1, 3
(2: 5.22, 1: 5.81, 3: 7.94)

---

Here, compounds appear alongside pIC50 reported for Rho-associated protein kinase 1 (Homo sapiens) in the literature.
pIC50: −log10 of the molar value.
Readout Name: pIC50

Here is how some compounds turned out for pIC50.
# Compound, Reported
rows = [
    ("O=C(OC1CCNC1)N1Cc2ccc(-c3nccc(Nc4ccc(-c5cn[nH]c5)cc4)n3)cc2C1 (stereo not shown)", 5.76),
    ("COc1cc(C(=O)N[C@@H](C)c2ccccc2Cl)ccc1-c1cn[nH]c1", 7.02),
    ("COc1cccc(CNC(=O)Nc2cc(-c3ccncc3)[nH]n2)c1F", 5.19),
    ("COc1cc(C(=O)N[C@H](CO)[C@H](O)c2ccccc2)ccc1-c1cn[nH]c1", 7.62),
    ("O=C(c1cc2ccc(-c3nccc(Nc4ccc(-c5cn[nH]c5)cc4)n3)cc2[nH]1)N1CCC2(CCN2)CC1", 5.64),
]

(P) O=C(NC(CCO)c1cccc(F)c1)c1cccc(-c2ccc3[nH]ncc3c2)c1 (stereo not shown)
(Q) CC1=C(C(=O)Nc2ccc3[nH]ncc3c2)C(c2ccc(F)c(C(=O)NCc3c(C)cccc3C)c2)NC(=O)N1 (stereo not shown)
Query: Hey, between P and Q which has a smaller measured pIC50? Lab log: write the label of the selected item as the result.
Result: Q
(Q: 5.24, P: 7.20)

(1) COc1cc(C(=O)NCc2ccc(Oc3ccccc3)cc2Cl)ccc1-c1cn[nH]c1
(2) CCN(CC)C1CCC(NC(=O)c2cccc([C@@H](CO)NC(=O)c3ccc(-c4ccncc4)cc3)c2)CC1 (stereo partly shown)
Query: Two entries are listed, 1 and 2 . Which one carries the higher pIC50? Lab log: write the label of the selected item as the result.
Result: 2
